B1: HDV Ribozyme (parent)
chain: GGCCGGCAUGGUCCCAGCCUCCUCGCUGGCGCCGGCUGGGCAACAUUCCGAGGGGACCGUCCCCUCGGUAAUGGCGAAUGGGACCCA

Variants of: B1
assay summary: self-cleavage, relative activity (ratio to wild type); higher = more cleavage; co-transcriptional
Class membership depends on self-cleavage alone; the intervals are one (below 0.3), two (0.3 to below 0.6), three (0.6 or more)

mutation_descriptor="C15A C33A" label_class=one
mutation_descriptor="C7A U37A" label_class=one
mutation_descriptor="U46C C75A" label_class=one
mutation_descriptor="C26A C58G" label_class=three
mutation_descriptor="C19U G28A" label_class=three
mutation_descriptor="C33A U65A" label_class=two
mutation_descriptor="C3U A16U" label_class=three
mutation_descriptor="U23A C63U" label_class=three
mutation_descriptor="G1U G80A" label_class=two
mutation_descriptor="G39A G59C" label_class=two
mutation_descriptor="G10A C13A" label_class=one
mutation_descriptor="C4A A51G" label_class=two
mutation_descriptor="A16C G52A" label_class=three
mutation_descriptor="A43C C64G" label_class=two
mutation_descriptor="C18U A56C" label_class=three
mutation_descriptor="G31U G52U" label_class=two
mutation_descriptor="G17U C63U" label_class=two
mutation_descriptor="U12C G35C" label_class=one
mutation_descriptor="C33A G39A" label_class=one
mutation_descriptor="G54C U60C" label_class=three
mutation_descriptor="C7G A51G" label_class=one
mutation_descriptor="C26G A87G" label_class=three
